molecular target: Vascular endothelial growth factor receptor 2 (Homo sapiens, UniProt P35968); test: Inhibition of VEGF stimulated VEGFR2 phosphorylation at […] residues in HUVEC preincubated for 1 hr followed by VEGF addition measured after 5 mins by Western blot analysis
Sequence (P35968 whole entry): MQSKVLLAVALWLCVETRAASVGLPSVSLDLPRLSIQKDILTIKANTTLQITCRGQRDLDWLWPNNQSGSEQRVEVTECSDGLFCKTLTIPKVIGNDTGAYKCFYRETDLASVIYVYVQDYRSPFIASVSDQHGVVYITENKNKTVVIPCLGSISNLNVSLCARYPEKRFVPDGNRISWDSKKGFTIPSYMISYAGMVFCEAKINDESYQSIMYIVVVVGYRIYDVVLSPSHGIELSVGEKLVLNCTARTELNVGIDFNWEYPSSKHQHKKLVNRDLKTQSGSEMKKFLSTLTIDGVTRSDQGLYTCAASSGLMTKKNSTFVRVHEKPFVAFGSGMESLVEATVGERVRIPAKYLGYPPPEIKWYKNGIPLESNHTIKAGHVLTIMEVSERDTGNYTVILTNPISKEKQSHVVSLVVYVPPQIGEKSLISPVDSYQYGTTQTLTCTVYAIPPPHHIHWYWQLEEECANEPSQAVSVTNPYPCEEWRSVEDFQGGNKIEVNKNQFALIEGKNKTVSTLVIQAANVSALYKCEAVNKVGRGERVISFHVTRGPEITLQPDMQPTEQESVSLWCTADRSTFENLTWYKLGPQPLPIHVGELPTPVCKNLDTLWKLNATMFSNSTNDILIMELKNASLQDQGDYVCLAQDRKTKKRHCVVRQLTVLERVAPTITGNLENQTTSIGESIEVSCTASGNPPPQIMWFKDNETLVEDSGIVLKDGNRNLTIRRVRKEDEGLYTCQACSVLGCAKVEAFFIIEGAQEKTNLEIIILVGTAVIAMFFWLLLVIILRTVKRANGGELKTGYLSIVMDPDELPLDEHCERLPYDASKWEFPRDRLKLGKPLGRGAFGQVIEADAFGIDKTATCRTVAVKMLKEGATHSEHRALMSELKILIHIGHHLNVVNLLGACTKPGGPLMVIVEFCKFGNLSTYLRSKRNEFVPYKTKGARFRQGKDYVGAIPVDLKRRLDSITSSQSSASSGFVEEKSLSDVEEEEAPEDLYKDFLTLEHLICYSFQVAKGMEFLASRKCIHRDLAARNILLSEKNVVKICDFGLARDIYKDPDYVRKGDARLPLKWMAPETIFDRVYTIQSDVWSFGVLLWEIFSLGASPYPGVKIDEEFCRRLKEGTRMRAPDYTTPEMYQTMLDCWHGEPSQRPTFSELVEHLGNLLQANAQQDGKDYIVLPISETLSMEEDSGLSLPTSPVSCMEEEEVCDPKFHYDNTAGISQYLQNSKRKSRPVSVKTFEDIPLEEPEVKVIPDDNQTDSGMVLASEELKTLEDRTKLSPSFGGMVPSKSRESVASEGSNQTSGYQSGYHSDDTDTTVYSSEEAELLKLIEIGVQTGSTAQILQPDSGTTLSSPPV
Each item that follows carries a reported pEC50.
pEC50 is defined as minus the log10 of a concentration measured in mol/L.

compound | assayed system | assay metric | value measured
COc1cc2ncnc(-n3nc(Nc4ccc(N5CCN(C6CC7CCC6C7)CC5)c(Cl)c4)nc3N)c2cc1OC (stereo not drawn) | Vascular endothelial growth factor receptor 2 (Homo sapiens, UniProt P35968) | pEC50 | 7.33

Form field pEC50 for item COc1cc2ncnc(-n3nc(Nc4ccc(OC5CCCN(C)C5)cc4)nc3N)c2cc1OC (stereo not drawn) on Vascular endothelial growth factor receptor 2 (Homo sapiens, UniProt P35968): 8.40

Form field pEC50 for item Nc1nc(Nc2ccc(N3CCN(C4CC5CCC4C5)CC3)cc2)nn1-c1ncnc2c1sc1ncccc12 (racemic) on Vascular endothelial growth factor receptor 2 (Homo sapiens, UniProt P35968): 7.62

----------
Each item that follows carries a reported pEC50.
target: Vascular endothelial growth factor receptor 2 (Homo sapiens); test: Inhibition of VEGF stimulated VEGFR2 phosphorylation at […] residues in HUVEC preincubated for 1 hr followed by VEGF addition measured after 5 mins by Western blot analysis
pEC50 is defined as minus the log10 of a concentration measured in mol/L.

molecule | pEC50
COc1cc2ncnc(-n3nc(Nc4ccc(C5CCN(C)CC5)cc4)nc3N)c2cc1OC | 7.85

GET /value?item= Cc1csc2c(-n3nc(Nc4ccc(N5CCN(C6CC7CCC6C7)CC5)cc4)nc3N)nc(Cl)nc12 (racemic) &field=pEC50 returns 7.19

GET /value?item= Nc1nc(Nc2ccc(N3CCN(C4CC5CCC4C5)CC3)cc2)nn1-c1ncnc2ccc(F)cc12 (racemic) &field=pEC50 returns 6.84

GET /value?item= CC(C)(C)c1cc2ncnc(-n3nc(Nc4ccc(N5CCN(C6CC7CCC6C7)CC5)c(Cl)c4)nc3N)c2s1 (racemic) &field=pEC50 returns 7.10

----------
Target: Tyrosine-protein kinase receptor UFO (Homo sapiens)
Sequence (P30530 whole entry): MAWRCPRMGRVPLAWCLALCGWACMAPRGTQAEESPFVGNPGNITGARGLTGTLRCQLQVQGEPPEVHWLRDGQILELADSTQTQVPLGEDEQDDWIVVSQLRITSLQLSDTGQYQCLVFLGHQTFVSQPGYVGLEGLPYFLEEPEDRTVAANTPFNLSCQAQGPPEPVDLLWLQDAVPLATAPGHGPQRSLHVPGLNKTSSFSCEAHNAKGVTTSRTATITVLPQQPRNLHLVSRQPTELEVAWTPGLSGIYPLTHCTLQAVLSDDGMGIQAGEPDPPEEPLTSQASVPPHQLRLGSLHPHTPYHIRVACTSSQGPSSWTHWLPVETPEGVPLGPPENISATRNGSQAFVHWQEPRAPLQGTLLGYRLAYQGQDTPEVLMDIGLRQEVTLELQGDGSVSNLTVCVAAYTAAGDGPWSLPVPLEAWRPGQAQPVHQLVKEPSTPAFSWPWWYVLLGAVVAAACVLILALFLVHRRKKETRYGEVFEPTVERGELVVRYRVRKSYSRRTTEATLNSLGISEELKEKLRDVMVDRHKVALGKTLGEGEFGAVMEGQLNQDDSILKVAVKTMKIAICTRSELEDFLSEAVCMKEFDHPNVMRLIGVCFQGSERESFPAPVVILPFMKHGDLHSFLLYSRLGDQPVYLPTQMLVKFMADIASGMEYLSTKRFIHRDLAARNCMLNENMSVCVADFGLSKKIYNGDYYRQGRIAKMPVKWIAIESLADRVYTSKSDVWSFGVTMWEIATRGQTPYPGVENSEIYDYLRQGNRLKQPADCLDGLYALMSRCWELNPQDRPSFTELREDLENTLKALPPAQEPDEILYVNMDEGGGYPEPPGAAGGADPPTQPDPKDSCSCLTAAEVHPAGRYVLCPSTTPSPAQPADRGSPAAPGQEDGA
Assay: Inhibition of Axl in human HeLa cells assessed as reduction in AKT phosphorylation at Ser 473 residues pre-incubated for 1 hr before preclustered anti-Axl antibody stimulation by Western blot analysis
pEC50: −log10 of the molar value.
Decide using pEC50: a value greater than or equal to 7 is fulfilled, a smaller one is not fulfilled.

Some solved entries appear below for comparison.
compound | class label
COc1cc2ncnc(-n3nc(Nc4ccc(N5CC[C@H](N(C)C)C5)cc4)nc3N)c2cc1OC | not fulfilled
Cc1csc2c(-n3nc(Nc4ccc(N5CCN([C@@H]6C[C@H]7CC[C@@H]6C7)CC5)c(Cl)c4)nc3N)nc(Cl)nc12 | not fulfilled
Nc1nc(Nc2ccc(N3CCN(C4CC5CCC4C5)CC3)cc2)nn1-c1ncnc2ccsc12 (racemic) | fulfilled
Nc1nc(Nc2ccc(N3CCN(C4CC5CCC4C5)CC3)cc2)nn1-c1ncnc2c1sc1ncccc12 (racemic) | fulfilled

Prompt line: Decide: is the reported value of pEC50 for COc1cc2ncnc(-n3nc(Nc4ccc(N5CCN(C)CC5)cc4)nc3N)c2cc1OC equal to or greater than 7?
Response line: fulfilled

Prompt line: Decide: is the reported value of pEC50 for Nc1nc(Nc2ccc(N3CCN(C4CC5CCC4C5)CC3)c(F)c2)nn1-c1ncnc2ccsc12 (racemic) equal to or greater than 7?
Response line: fulfilled

Data provenance is ChEMBL document CHEMBL4052763.
